Values were extracted from patent US9862746B2.

# system: UniProt P42568
# Sequence (P42568 497-568): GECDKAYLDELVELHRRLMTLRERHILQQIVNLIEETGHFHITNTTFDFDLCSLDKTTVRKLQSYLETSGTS
# method summary: SPR competitive binding assay of small molecules, AF9-DOT1L
# Design: against AF9(497-568) and ENL (489-559) proteins running different tested concentrations over CM5 chip; GB1 (pGB1-LIC vector); made in house; host or cells: Escherichia coli BL21 (DE3)
# condition details: SPR competitive; read-out: IC50, inhibition of AF9-DOT1L interaction
pIC50: −log10 of the molar value.
value kind: pIC50

molecule | pIC50
O=c1c(O)cccc2cc(O)c(O)c(O)c12 [CCG-38505] | 5.24
O=C(c1cc(O)c(O)c(O)c1)c1ccc(O)c(O)c1O [CCG-208095] | 5.20
